Test system: 354836-022-R-J1-PDC multicell spheroid viability
Test: Anticancer human tumor 354836-022-R-J1-PDC patient-derived head and neck squamous cell carcinoma cell line growth inhibition [PI3K]
Settings: second compound 0.316 µM; first compound 0.316 µM; active compounds read low
From the text: Combinatorial screen of targeted agents with the PI3K inhibitors inavolisib, alpelisib, duvelisib, and copanlisib in multi-cell type tumor spheroids A high-throughput screen of multi-cell type tumor spheroids was designed to identify active combinations of targeted small molecules and PI3K pathway inhibitors. […] Compounds. […] If the clinical Cmax for an agent had not been determined, the highest concentration tested was 10 microM. […]
measurement_name: viability, T/C

Give recorded viability, T/C with 354836-022-R-J1-PDC multicell spheroid viability for the following compound: CNC(=O)c1ccc(N2C(=S)N(c3ccc(C#N)c(C(F)(F)F)c3)C(=O)C2(C)C)cc1F + Cc1nc(NC(=O)N2CCCC2C(N)=O)sc1-c1ccnc(C(C)(C)C(F)(F)F)c1
89.1%

Likewise for C=CC(=O)N1CCN(c2nc(=O)n(-c3c(C)ccnc3C(C)C)c3nc(-c4c(O)cccc4F)c(F)cc23)C(C)C1 (stereo not given) + CC(Nc1ccc2c(c1)OCCn1cc(N3C(=O)OCC3C(F)F)nc1-2)C(N)=O ?
81.5%

Likewise for C=CC(=O)N1CCN(c2nc(=O)n(-c3c(C)ccnc3C(C)C)c3nc(-c4c(O)cccc4F)c(F)cc23)C(C)C1 (stereo not given) + Cc1nc(NC(=O)N2CCCC2C(N)=O)sc1-c1ccnc(C(C)(C)C(F)(F)F)c1 ?
92.1%

Likewise for CC1(C)CCC(CN2CCN(c3ccc(C(=O)NS(=O)(=O)c4ccc(NCC5CCOCC5)c([N+](=O)[O-])c4)c(Oc4cnc5[nH]ccc5c4)c3)CC2)=C(c2ccc(Cl)cc2)C1 + CC(Nc1ncnc2nc[nH]c12)c1cc2cccc(Cl)c2c(=O)n1-c1ccccc1 ?
103%

Likewise for CC1(C)CCC(Nc2ncc(C(F)(F)F)c(-c3c[nH]c4c(P(C)(C)=O)c(C#N)ccc34)n2)CN1 (stereo not given) + COc1c(OCCCN2CCOCC2)ccc2c3n(c(=NC(=O)c4cnc(N)nc4)nc12)CCN3 ?
5.12%

Likewise for Cn1nccc1Nc1nccc(-c2ccn(C(CO)c3ccc(Cl)c(F)c3)c(=O)c2)n1 (stereo not given) + CC(Nc1ncnc2nc[nH]c12)c1cc2cccc(Cl)c2c(=O)n1-c1ccccc1 ?
87.2%

Likewise for C[C@@H](NC(=O)c1ncnc(N)c1Cl)c1ncc(C(=O)Nc2cc(C(F)(F)F)c(Cl)cn2)s1 + CC(Nc1ncnc2nc[nH]c12)c1cc2cccc(Cl)c2c(=O)n1-c1ccccc1 ?
92.5%

Likewise for C#Cc1c(F)ccc2cc(O)cc(-c3ncc4c(N5CC6CCC(C5)N6)nc(OCC56CCCN5CC(F)C6)nc4c3F)c12 (stereo not given) + Cc1nc(NC(=O)N2CCCC2C(N)=O)sc1-c1ccnc(C(C)(C)C(F)(F)F)c1 ?
91.3%

Likewise for Cn1nccc1Nc1nccc(-c2ccn(C(CO)c3ccc(Cl)c(F)c3)c(=O)c2)n1 (stereo not given) + Cc1nc(NC(=O)N2CCCC2C(N)=O)sc1-c1ccnc(C(C)(C)C(F)(F)F)c1 ?
87.7%

Likewise for C[C@@H](NC(=O)c1ncnc(N)c1Cl)c1ncc(C(=O)Nc2cc(C(F)(F)F)c(Cl)cn2)s1 + Cc1nc(NC(=O)N2CCCC2C(N)=O)sc1-c1ccnc(C(C)(C)C(F)(F)F)c1 ?
86.5%

###

Tested on: 354836-022-R-J1-PDC multicell spheroid viability
Experiment: Anticancer human tumor 354836-022-R-J1-PDC cell line growth inhibition [PI3K];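 further: spheroids exposed to agents for seven days before the viability read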
Details: second compound 0.1 µM; first compound 0.949 µM; active compounds read low
What viability, T/C was measured for each of the following?
Reply with just the number (in %).

Returns the measured viability, T/C for the input molecule. Input: Cn1cnc2c(F)c(Nc3ccc(Br)cc3Cl)c(C(=O)NOCCO)cc21 + CC(Nc1ccc2c(c1)OCCn1cc(N3C(=O)OCC3C(F)F)nc1-2)C(N)=O
81.6

Likewise for Cn1cnc2c(F)c(Nc3ccc(Br)cc3Cl)c(C(=O)NOCCO)cc21 + COc1c(OCCCN2CCOCC2)ccc2c3n(c(=NC(=O)c4cnc(N)nc4)nc12)CCN3 ?
31.2

Likewise for Cn1cnc2c(F)c(Nc3ccc(Br)cc3Cl)c(C(=O)NOCCO)cc21 + CC(Nc1ncnc2nc[nH]c12)c1cc2cccc(Cl)c2c(=O)n1-c1ccccc1 ?
64.6

Likewise for Cn1cnc2c(F)c(Nc3ccc(Br)cc3Cl)c(C(=O)NOCCO)cc21 + Cc1nc(NC(=O)N2CCCC2C(N)=O)sc1-c1ccnc(C(C)(C)C(F)(F)F)c1 ?
70.4

###

What viability, T/C was measured for each of the following?
Test system: 354836-022-R-J1-PDC multicell spheroid viability
Test: Anticancer human tumor 354836-022-R-J1-PDC cell line growth inhibition [PI3K];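 further: spheroids exposed to agents for seven days before the viability read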
Settings: second compound 0.316 µM; first compound 0.1 µM; active compounds read low

Returns the measured viability, T/C for the input compound. Input: CC(Cn1ccc(-c2ccc(C#N)c(Cl)c2)n1)NC(=O)c1cc(C(C)O)[nH]n1 (stereo not drawn) + Cc1nc(NC(=O)N2CCCC2C(N)=O)sc1-c1ccnc(C(C)(C)C(F)(F)F)c1
91.8%

Likewise for CCN1CCN(Cc2ccc(Nc3ncc(F)c(-c4cc(F)c5nc(C)n(C(C)C)c5c4)n3)nc2)CC1 + Cc1nc(NC(=O)N2CCCC2C(N)=O)sc1-c1ccnc(C(C)(C)C(F)(F)F)c1 ?
92%

Likewise for C#Cc1c(F)ccc2cc(O)cc(-c3ncc4c(N5CC6CCC(C5)N6)nc(OCC56CCCN5CC(F)C6)nc4c3F)c12 (stereo not drawn) + CC(Nc1ccc2c(c1)OCCn1cc(N3C(=O)OCC3C(F)F)nc1-2)C(N)=O ?
89.1%

###

Test system: 354836-022-R-J1-PDC multicell spheroid viability
Experiment: Anticancer human tumor 354836-022-R-J1-PDC cell line growth inhibition [PI3K];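 further: spheroids exposed to agents for seven days before the viability read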
Conditions: second compound 1 µM; first compound 0.0316 µM; active compounds read low
What viability, T/C was measured for each of the following?

Returns the measured viability, T/C for the input compound. Input: CNC(=O)c1ccc(N2C(=S)N(c3ccc(C#N)c(C(F)(F)F)c3)C(=O)C2(C)C)cc1F + Cc1nc(NC(=O)N2CCCC2C(N)=O)sc1-c1ccnc(C(C)(C)C(F)(F)F)c1
93.5%

Likewise for CC1(C)CCC(CN2CCN(c3ccc(C(=O)NS(=O)(=O)c4ccc(NCC5CCOCC5)c([N+](=O)[O-])c4)c(Oc4cnc5[nH]ccc5c4)c3)CC2)=C(c2ccc(Cl)cc2)C1 + CC(Nc1ccc2c(c1)OCCn1cc(N3C(=O)OCC3C(F)F)nc1-2)C(N)=O ?
62%

Likewise for C=CC(=O)N1CCN(c2nc(=O)n(-c3c(C)ccnc3C(C)C)c3nc(-c4c(O)cccc4F)c(F)cc23)C(C)C1 (stereo not drawn) + CC(Nc1ncnc2nc[nH]c12)c1cc2cccc(Cl)c2c(=O)n1-c1ccccc1 ?
103%

###

System: 354836-022-R-J1-PDC multicell spheroid viability
Experiment: Anticancer human tumor 354836-022-R-J1-PDC cell line growth inhibition [PI3K];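 further: spheroids exposed to agents for seven days before the viability read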
Conditions: second compound 0.316 µM; first compound 3.16 µM; active compounds read low
What viability, T/C was measured for each of the following?
Reply with just the number (in %).

Give recorded viability, T/C with 354836-022-R-J1-PDC multicell spheroid viability for the following compound: C[C@@H](NC(=O)c1ncnc(N)c1Cl)c1ncc(C(=O)Nc2cc(C(F)(F)F)c(Cl)cn2)s1 + COc1c(OCCCN2CCOCC2)ccc2c3n(c(=NC(=O)c4cnc(N)nc4)nc12)CCN3
24.4

Likewise for CC(Cn1ccc(-c2ccc(C#N)c(Cl)c2)n1)NC(=O)c1cc(C(C)O)[nH]n1 (stereo unspecified) + Cc1nc(NC(=O)N2CCCC2C(N)=O)sc1-c1ccnc(C(C)(C)C(F)(F)F)c1 ?
81.2

Likewise for CC(C)NCC(C(=O)N1CCN(c2ncnc3c2C(C)CC3O)CC1)c1ccc(Cl)cc1 (stereo unspecified) + COc1c(OCCCN2CCOCC2)ccc2c3n(c(=NC(=O)c4cnc(N)nc4)nc12)CCN3 ?
1.76

Likewise for CNC(=O)c1ccc(N2C(=S)N(c3ccc(C#N)c(C(F)(F)F)c3)C(=O)C2(C)C)cc1F + Cc1nc(NC(=O)N2CCCC2C(N)=O)sc1-c1ccnc(C(C)(C)C(F)(F)F)c1 ?
98.2

Likewise for CCCS(=O)(=O)Nc1ccc(F)c(C(=O)c2c[nH]c3ncc(-c4ccc(Cl)cc4)cc23)c1F + COc1c(OCCCN2CCOCC2)ccc2c3n(c(=NC(=O)c4cnc(N)nc4)nc12)CCN3 ?
12.4

Likewise for CC(Cn1ccc(-c2ccc(C#N)c(Cl)c2)n1)NC(=O)c1cc(C(C)O)[nH]n1 (stereo unspecified) + CC(Nc1ncnc2nc[nH]c12)c1cc2cccc(Cl)c2c(=O)n1-c1ccccc1 ?
101

Likewise for CCCS(=O)(=O)Nc1ccc(F)c(C(=O)c2c[nH]c3ncc(-c4ccc(Cl)cc4)cc23)c1F + CC(Nc1ncnc2nc[nH]c12)c1cc2cccc(Cl)c2c(=O)n1-c1ccccc1 ?
110

Likewise for CC(C)NCC(C(=O)N1CCN(c2ncnc3c2C(C)CC3O)CC1)c1ccc(Cl)cc1 (stereo unspecified) + CC(Nc1ccc2c(c1)OCCn1cc(N3C(=O)OCC3C(F)F)nc1-2)C(N)=O ?
16.2

Likewise for CC1(C)CCC(Nc2ncc(C(F)(F)F)c(-c3c[nH]c4c(P(C)(C)=O)c(C#N)ccc34)n2)CN1 (stereo unspecified) + COc1c(OCCCN2CCOCC2)ccc2c3n(c(=NC(=O)c4cnc(N)nc4)nc12)CCN3 ?
4.19

Likewise for CC1(C)CCC(Nc2ncc(C(F)(F)F)c(-c3c[nH]c4c(P(C)(C)=O)c(C#N)ccc34)n2)CN1 (stereo unspecified) + Cc1nc(NC(=O)N2CCCC2C(N)=O)sc1-c1ccnc(C(C)(C)C(F)(F)F)c1 ?
24

Likewise for CNC(=O)c1ccc(N2C(=S)N(c3ccc(C#N)c(C(F)(F)F)c3)C(=O)C2(C)C)cc1F + CC(Nc1ncnc2nc[nH]c12)c1cc2cccc(Cl)c2c(=O)n1-c1ccccc1 ?
105
